assay: endothelial E-selectin expression blockers – imaging, HUVEC, immunofluorescence, MLSMR starter and 10KST1 sets, primary screen (AID 487); settings: HUVEC TNFalpha-induced E-selectin immunofluorescence imaging, at 2 µM; measured here: cell number, toxicity;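 note: 100% = median nuclei count of all wells on the same plate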
Would you kindly list nuclei count for each of these molecules?
Include the unit right after the number.

Query: Specify measured nuclei count for COc1ccc2c(c1)Sc1ccccc1N2CCN(C)C .
Result: 103%

Query: Supply reported nuclei count belonging to this molecule: COc1ccc(N2CCN(CCNS(=O)(=O)c3cccc4nsnc34)CC2)cc1
Result: 104%

Query: Write down nuclei count measured for item COc1ccccc1NC(=O)CSc1nnc(-c2ccncc2)o1
Result: 117%

Query: State its nuclei count for this molecule: CCOC(=O)Nc1ccc2c(CN3C(=O)NC4(CCCC4)C3=O)cc(=O)oc2c1
Result: 153%

Query: Item O=C(NS(=O)(=O)c1ccc(NC(=O)C2CCCO2)cc1)c1ccccc1 (stereo unspecified) : provide nuclei count
Result: 125%

Query: Dear colleague, please send me the reported nuclei count for CC(=O)Nc1ccc(Cl)cc1C(=O)O when you can.
Result: 74.6%

Query: For the molecule S=C(c1ccc(N2CCOCC2)cc1)N1CCCCC1 , report nuclei count.
Result: 111%

Query: Please look at this molecule and report its nuclei count: CC(C)C(C(=O)Nc1ccc2c(c1)OCO2)N1C(=O)c2ccccc2C1=O (stereo unspecified)
Result: 85%

Query: Dear colleague, please send me the reported nuclei count for CCOC(=O)C1CCN(CC(=O)c2c(C)[nH]c3ccccc23)CC1 when you can.
Result: 102%

Query: Give the measured nuclei count for COc1cccc(NC(=O)c2nnn(Cc3ccc(Br)cc3F)c2N)c1
Result: 108%

Query: Recall and state the measured nuclei count for COc1cccc(NC(=O)COc2ccccc2C(N)=O)c1 .
Result: 78%
